What growth was measured for each of the following?
Test system: SK-MEL-2 melanoma
Assay: NCI-60 one-dose screen, 48 h (100 = growth as untreated, 0 = no growth, -100 = all killed)
Conditions: 10 µM unless noted
About 83,000 compounds went through this panel and 20% of them were active in at least one assay; those are over-represented in the sample as a whole.
Note: unit % is implicit; provide only the numeric part.

Item under review: Clc1ccc(-c2nc3ccc(-c4nnc(SCc5ccccc5)o4)cc3[nH]2)cc1 . Reported growth?
75.3

What value of growth has been reported for the following compound? O=C(CSc1nnc(-c2ccc(-c3nc4ccc(Cl)cc4[nH]3)cc2)o1)Nc1ccc(Br)cc1
5.03

I am curious: what growth value has been reported for CN(CCSSCCN1CCOCC1)C(=O)Oc1cc2c(c3ccccc13)[C@H](CCl)CN2C(=O)c1cc2cc(OCCCN3CCC3)ccc2[nH]1 ?
-84.3

Reported growth for COc1ccc2[nH]cc(-c3cc4nc(-c5cn(C)c6ncc(Br)cc56)cc(N)n4n3)c2c1 : what is it?
-34.7

Suppose we examine the compound N#Cc1ccc(C(=O)CSc2nc3c(c(Nc4ccc(S(N)(=O)=O)cc4)n2)CCC3)cc1 ; what growth value has been reported?
87.4

Report growth for Cc1[nH]nc2ccc3nc(-c4cnn(CCO)c4)c4c(c3c12)CCCC4 please.
21.1

Param item = Fc1ccc(F)c(CNc2nc(SCCN3CCOCC3)nc3c2cnn3CC(Cl)c2ccc(Br)cc2)c1 (centres undefined) ; retrieve measured growth.
5.82

What value of growth has been reported for the following compound? CC(C)(C)c1cc(-c2cc(-c3ccccc3)[nH]c(=O)c2C#N)cc(C(C)(C)C)c1
94.4

Item CN(C)c1nc(NCCNS(=O)(=O)c2ccc(C(=O)/C=C/c3ccc(C(F)(F)F)cc3)cc2)nc(N2CCOCC2)n1 has what recorded growth?
74.8

Fill in: growth of CC1=C(C(=O)OC(C)C)C(c2ccc(O)cc2)NC(=O)N1 (centres undefined) is ___
96.5

Any idea what its growth is? The compound is Nc1cc(-c2c[nH]c3ccc(Br)cc23)nc2cc(-c3c[nH]c4ccccc34)nn12
-66.8

Please give the measured growth for this compound: O=CNc1ccc(-n2cnc3cc(-c4ccc(O)cc4)ccc32)cc1
115

Consider the compound shown here: Nc1nc2cc(-c3ccc4ncnc(NCc5ccccc5)c4c3)ccc2o1 What is its recorded growth?
42.2

Query (compound): NNc1ncnc2sc3c(c12)CCN(Cc1ccccc1)C3 ; field requested: growth
82

# lookup: growth of C/C(=N\Nc1ccc(S(N)(=O)=O)cc1)c1cnn(-c2cc(=O)[nH]c3ccc(Br)cc23)c1C
20

Any idea what growth was measured for CCC1(OC(=O)c2ccccc2SSCCOC(=O)CCCCC2SCC3NC(=O)NC32)C(=O)OCc2c1cc1n(c2=O)Cc2cc3ccccc3nc2-1 (centres undefined) ?
103

Requested read-out: growth. Entry: COc1ccc([C@H]2C(C(=O)c3ccc(Cl)cc3)C3(N[C@@H]2c2ccccc2)C(=O)Nc2ccccc23)cc1 (some centres undefined)
-29.6

Need growth of CN(C)c1nc(NCCNS(=O)(=O)c2ccc(C(=O)/C=C/c3ccc(F)cc3)cc2)nc(N2CCOCC2)n1 , thanks.
62.2

Param item = COc1cc(/C=C/C(=O)c2cnn(-c3cc(=O)[nH]c4ccc(C)cc34)c2C)cc(OC)c1OC ; retrieve measured growth.
-73.1

---

Test system: HCC-2998 colon
Test: NCI-60 one-dose screen, 48 h (100 = growth as untreated, 0 = no growth, -100 = all killed)
Settings: 10 µM unless noted
This is part of a sample that, as a whole, favours compounds with a hit. Of some 83,000 tested, about 20% had one in any assay.
Reported Metric: growth (%)
Answer in %, number only, no unit symbol.

Which growth reading was recorded for the compound CCCCCCCCc1ccc(C(=O)Nc2cccc(O)c2)cc1 ?
109

Please look up its growth: COc1ccc(-c2cc(C(=O)N=Nc3c(O)[nH]c4ccc(Cl)cc34)c3ccccc3n2)cc1
19.3

growth for COc1nc(N)ncc1-c1ccc2ncnc(N3CCc4cc(F)c(Cl)cc43)c2c1 ?
12.2

Please look up its growth: CC[C@]12C=CCN3CC[C@]4(C(=C(C(=O)OC)C1)Nc1cc(OC)c([C@@H]5[C@H]6O[C@H]6[C@@]6(CC)CC(C(=O)OC)=C7Nc8cc(OC)ccc8[C@@]78CCN5[C@@H]68)cc14)[C@@H]32
112

Given the compound CCCCCCCCc1ccc(C(=O)Nc2ccc(C)c(OP(=O)(O)O)c2)cc1 , what is its reported growth?
125

Item O=C(N=Nc1c(O)[nH]c2ccc(Br)cc12)c1ccc2nc(-c3ccc(Cl)cc3)[nH]c2c1 has what recorded growth?
-66.8

What does the record list as growth for O=C1Nc2cc(-c3ccc(NS(=O)(=O)c4ccc(-c5ccccc5)cc4)cc3)ccc2/C1=C/c1ccc[nH]1 ?
50.8

Quick one: growth for COc1c(B(O)O)cc(F)cc1-c1nc2ccc3[nH]ncc3c2c2c1COCC2 ?
80.3

---

Tested on: A549/ATCC NSCLC
Assay: NCI-60 one-dose screen, 48 h (100 = growth as untreated, 0 = no growth, -100 = all killed)
Conditions: 10 µM unless noted
The panel holds about 83,000 compounds, 20% with a hit somewhere; the sample as a whole holds those more often.
We use 20% as the dividing line for growth: on or above the line is 1 (yes), below is 0 (no).

Confirm if growth reported for the compound COc1cccc(C(N)=Nc2ccc(OCCCCCCCCn3cncn3)cc2)c1 is 20% or above.
1 (yes)

Evaluate O=C(Cc1c(-c2cccc([N+](=O)[O-])c2)n(-c2ncnc3c2c(-c2ccccc2)c(-c2ccccc2)n3Cc2ccccc2)[nH]c1=O)c1ccc(Cl)c(Cl)c1 : growth at minimum 20%?
1 (yes)

// inclusive: growth at least 20%? input: COc1cc(CNC(=O)C[C@H](C)CCC=C(C)C)ccc1OCc1cn(-c2cccc(C(F)(F)F)c2)nn1
1 (yes)

Is growth at least 20%? Consider O=C(N/N=C/c1occc1Br)c1[nH]c2ccc(Br)cc2c1-c1ccccc1
0 (no)

Textbook exercise: given the entry CCCCC[C@@H]1C/C=C(\C)[C@@H](O)C(C)(C)C(=O)[C@@H](C)/C=C(\C)[C@@H]2C[C@H](O)C[C@](O)(CC(=O)O1)O2 , state whether its growth is greater than or equal to 20%.
1 (yes)

Is growth for COc1ccc2[nH]c(O)c(N=Nc3nc(-c4ccc(Br)cc4)cs3)c2c1 at or above 20%?
0 (no)

Determine whether this compound has growth no lower than 20%: Fc1ccc(F)c(CNc2nc(SCCN3CCOCC3)nc3c2cnn3CC(Cl)c2ccc(Br)cc2)c1 (centres undefined)
1 (yes)

Reported growth reaches at least 20% for O=C(N/N=C/c1ccoc1)c1[nH]c2ccc(Br)cc2c1-c1ccccc1 ?
0 (no)

Determine whether this compound has growth no lower than 20%: C#CCCCNCCNc1ccnc2cc(Cl)ccc12
1 (yes)

---

Test system: UACC-62 melanoma
Test: NCI-60 one-dose screen, 48 h
Details: 10 µM unless noted
This is part of a sample that, as a whole, favours compounds with a hit. Of some 83,000 tested, about 20% had one in any assay. Activity calls are given as the source filed them. How the source made its calls: active means growth percent below 10; inactive means the rest.
Can you answer with just one of these options? active, inactive

How was COc1cc(NC(=O)C(C)C)ccc1C(=O)NC(=S)Nc1ccc(S(N)(=O)=O)cc1 classified in this test?
inactive

What outcome does the record of this test show for COc1cncc(-c2ccc3ncnc(N4CCc5ccc(Cl)cc54)c3c2)c1 ?
inactive

Assay outcome for COc1cc(CNC(=O)C[C@H](C)CCC=C(C)C)ccc1OCc1cn(-c2ccc(Cl)cc2Cl)nn1 : what was it?
inactive

Write down the call the test reported for this compound. Item: N#Cc1cc(-c2ccnc(Nc3ccc(N4CCN(C5COC5)CC4)cc3)n2)ccc1N1CCCC1
inactive

I'd appreciate the recorded outcome for O=C(N=Nc1c(O)[nH]c2ccc(Br)cc12)c1ccc2nc(-c3ccc(Cl)cc3)[nH]c2c1 from this test.
active

Per the records of this test, what outcome belongs to C/C(=N/O)c1ccc(NC(=O)CSc2nnc(-c3ccc4nc(-c5ccc(Cl)cc5)[nH]c4c3)o2)cc1 ?
inactive

Please let me know the test result on file for N/C(=N\c1nc2ccc([N+](=O)[O-])cc2s1)NC(=O)Nc1ccccc1Cl .
inactive

Hey, what did the test say about Cc1cccc(/C=C/c2ccc(NC(=S)NCCCCN(C)C)cc2)c1 ?
active

Query: recorded result category for CC1=C(C(=O)OCc2ccccc2)C(c2cccc3ccccc23)n2c(nc3ccccc32)N1 (centres undefined) in this test
inactive

---

System: SK-MEL-2 melanoma
Assay: NCI-60 one-dose screen, 48 h
Details: 10 µM unless noted
Compounds without any hit were thinned out: in the full panel of roughly 83,000, 20% have a hit. The source made the active and inactive calls. How the source made its calls: active means growth percent below 10; inactive means the rest.
Permitted responses: TRUE (active), FALSE (inactive)

Hey, what did the test say about FC(F)(F)c1cc2c(Cl)ncnc2n1CCN1CCCCC1 ?
TRUE

Field: outcome | Entry: Cc1cc(C)c2[nH]c(=O)c(C(c3nnnn3Cc3ccc4c(c3)OCO4)N3CCN(C)CC3)cc2c1 (centres undefined)
FALSE

I would be grateful if you could indicate the recorded call for Clc1ccc(-c2nc3c4c(-c5ccccc5)c(-c5ccccc5)n(Cc5ccccc5)c4ncn3n2)cc1 .
TRUE

Kindly provide the recorded test outcome for the following compound: O=C(N=Nc1c(O)[nH]c2ccc(Br)cc12)c1ccc2nc(-c3ccc(Cl)cc3)[nH]c2c1
TRUE

Status in this test for Oc1cncc(-c2ccc3ncnc(N4CCc5cc(F)c(Cl)cc54)c3c2)c1 ?
FALSE

Can you look up the reported call for COc1ccc2c(c1)C(=O)N(C)C2C1c2c(cc3c(c2OC)OCO3)CCN1C (centres undefined) for me?
FALSE

Assay outcome for Cc1nn(-c2ccccc2)c2nc(C)n(CC(=O)N/N=C/c3ccccc3O)c(=O)c12 : what was it?
FALSE

Could you kindly confirm the outcome this assay logged for O=C(CSc1nc2sc3c(c2c(=O)n1-c1ccc(Cl)cc1)CCCC3)N/N=C/C=C/c1ccccc1 ?
TRUE

Answer briefly: the call reported for COc1ccc2[nH]c(O)c(N=Nc3nc(-c4ccccc4)cs3)c2c1 in this assay.
FALSE

Hey, what did the test say about N/C(=N\c1nc2ccc([N+](=O)[O-])cc2s1)NC(=O)Nc1ccccc1Cl ?
FALSE

I'd appreciate the recorded outcome for Nc1cc(-c2c[nH]c3ccc(Cl)cc23)nc2cc(-c3c[nH]c4ccccc34)nn12 from this test.
TRUE

What did the test return for COc1cc(C2CC(c3ccc(S(=O)(=O)NCCNc4nc(N(C)C)nc(N5CCOCC5)n4)cc3)=Nc3c(N)nc(N)nc3N2)cc(OC)c1OC (centres undefined) ?
FALSE

For O=C1Nc2cc(-c3ccc(NS(=O)(=O)c4ccc(C(F)(F)F)cc4)cc3)ccc2/C1=C/c1ccc[nH]1 , what call appears in the results of this test?
FALSE

Lab log entry: COc1ccc(N=Nc2c(N)nn3c(N)c(C#N)c(-c4ccccc4)nc23)cc1 — outcome as called in the assay?
FALSE

Just curious, what result did COc1ccc2[nH]cc(-c3cc4nc(-c5cn(C)c6ncccc56)cc(N)n4n3)c2c1 get here?
FALSE

Record lookup: outcome of this test for Cc1ccc(C(C(=O)NC2CCCCC2)N(Cc2ccccc2Cl)C(=O)c2ccc(CN3CCOCC3)o2)o1 (centres undefined) ?
FALSE

What classification did CC1=C(C)C(=O)C(N2CCSCC2)=CC1=O end up with in this test?
FALSE

Can you look up the reported call for O=C1/C(=C/C=C/c2ccco2)SC(=S)N1CC(=S)C1C=CS(=O)(=O)C1 (centres undefined) for me?
FALSE

GET /call?item= COc1ccc2[nH]c(=O)c(CSc3ccccc3Nc3nccc(-c4ccc(C(F)(F)F)cc4)n3)cc2c1 returns the recorded outcome of this test.
FALSE

Every entry's value here was drawn from PubChem BioAssay (NCI).
